- measured_on: T1, factor H binding protein (fHbp) variant 3.28 (Neisseria meningitidis M1239, fHbp v3.28, UniProt Q19KF7, strain)
- T1 construct: also called fHbp v3.28; fHbp v3; source: E. coli BL21(DE3), purified (Ni-NTA; SEC when necessary)
- test_summary: SPR
- assay_setup: both partners purified
measurement_kind: kon (M⁻¹ s⁻¹)
The figure you give is taken to be in M⁻¹ s⁻¹; do not add the unit.

Data request: Request the reported kon associated with human anti-fHbp mAb 1D1 (antibody, V domains shown, source: Expi293, transient transfection, purified (protein G Sepharose)) VH: QVQLVGSGGGLVKPGGSLRLSCAASGFTFSSYTMNWVRQAPGKGLEWVSSISSSSGYIYYADSLKGRFTISRDDAKNSLFLQMNSLRAEDTAVYFCARDKVLPAPPGFYGLDVWGPGTTVTVSS VL: QSVVTQPPSVSAAPGQKVTISCSGSSSNIEDNFVSWYQQLPGTAPKLLIYDNNQRPSGIPDRFSGSKSGTSATLGITGLQTGDEADYYCATWDNSLSARVFGGGTKLTVL
Data returned: 371000

Data request: Look up kon for this binder: human anti-fHbp mAb 3F1 (antibody, V domains shown, source: Expi293, transient transfection, purified (protein G Sepharose)) VH: EVHLVESGGGLVKPGGSLRLSCAASGFTFSSYTMNWVRQAPGKGLEWVSSISSSSGYIYYADSLKGRFTISRDNAKNSLFLQMNSLRAEDTAVYFCARDKVLPAPPGFYGLDVWGPGTTVTVSS VL: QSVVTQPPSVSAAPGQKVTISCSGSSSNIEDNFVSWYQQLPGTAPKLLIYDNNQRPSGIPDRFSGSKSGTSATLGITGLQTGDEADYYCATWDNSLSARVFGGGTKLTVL
Data returned: 340000

Data request: GET /values?readout=kon&item= human anti-fHbp mAb 3G7 (antibody, V domains shown, source: Expi293, transient transfection, purified (protein G Sepharose)) VH: EVQLLQSGGGLVKPGGSLRLSCAASGFPFSSYYMSWIRQAPGKGLEWVSDINNSGNVKEYADFVKGRLTISRDNVKNSMYLHMNSLRVEDTAVYYCARNRGRFDVWGQGTLVTVSA VL: EIVLTQSPGTLSLSPGETATLSCRASQMISSPFLAWYQQRRGQAPRLLIYGASTRATDTPDRFRGSGSGTDFILTISRLEPEDFAVYYCQYYDDSPFTFGQGTKLEIK
Data returned: 258000

The reported measurements were obtained from paper PMC7556464.
